Target: human GluN1/GluN2B (Homo sapiens (Human), UniProt Q05586+Q13224)
Sequence (Q13224 27-1484, other chains not shown): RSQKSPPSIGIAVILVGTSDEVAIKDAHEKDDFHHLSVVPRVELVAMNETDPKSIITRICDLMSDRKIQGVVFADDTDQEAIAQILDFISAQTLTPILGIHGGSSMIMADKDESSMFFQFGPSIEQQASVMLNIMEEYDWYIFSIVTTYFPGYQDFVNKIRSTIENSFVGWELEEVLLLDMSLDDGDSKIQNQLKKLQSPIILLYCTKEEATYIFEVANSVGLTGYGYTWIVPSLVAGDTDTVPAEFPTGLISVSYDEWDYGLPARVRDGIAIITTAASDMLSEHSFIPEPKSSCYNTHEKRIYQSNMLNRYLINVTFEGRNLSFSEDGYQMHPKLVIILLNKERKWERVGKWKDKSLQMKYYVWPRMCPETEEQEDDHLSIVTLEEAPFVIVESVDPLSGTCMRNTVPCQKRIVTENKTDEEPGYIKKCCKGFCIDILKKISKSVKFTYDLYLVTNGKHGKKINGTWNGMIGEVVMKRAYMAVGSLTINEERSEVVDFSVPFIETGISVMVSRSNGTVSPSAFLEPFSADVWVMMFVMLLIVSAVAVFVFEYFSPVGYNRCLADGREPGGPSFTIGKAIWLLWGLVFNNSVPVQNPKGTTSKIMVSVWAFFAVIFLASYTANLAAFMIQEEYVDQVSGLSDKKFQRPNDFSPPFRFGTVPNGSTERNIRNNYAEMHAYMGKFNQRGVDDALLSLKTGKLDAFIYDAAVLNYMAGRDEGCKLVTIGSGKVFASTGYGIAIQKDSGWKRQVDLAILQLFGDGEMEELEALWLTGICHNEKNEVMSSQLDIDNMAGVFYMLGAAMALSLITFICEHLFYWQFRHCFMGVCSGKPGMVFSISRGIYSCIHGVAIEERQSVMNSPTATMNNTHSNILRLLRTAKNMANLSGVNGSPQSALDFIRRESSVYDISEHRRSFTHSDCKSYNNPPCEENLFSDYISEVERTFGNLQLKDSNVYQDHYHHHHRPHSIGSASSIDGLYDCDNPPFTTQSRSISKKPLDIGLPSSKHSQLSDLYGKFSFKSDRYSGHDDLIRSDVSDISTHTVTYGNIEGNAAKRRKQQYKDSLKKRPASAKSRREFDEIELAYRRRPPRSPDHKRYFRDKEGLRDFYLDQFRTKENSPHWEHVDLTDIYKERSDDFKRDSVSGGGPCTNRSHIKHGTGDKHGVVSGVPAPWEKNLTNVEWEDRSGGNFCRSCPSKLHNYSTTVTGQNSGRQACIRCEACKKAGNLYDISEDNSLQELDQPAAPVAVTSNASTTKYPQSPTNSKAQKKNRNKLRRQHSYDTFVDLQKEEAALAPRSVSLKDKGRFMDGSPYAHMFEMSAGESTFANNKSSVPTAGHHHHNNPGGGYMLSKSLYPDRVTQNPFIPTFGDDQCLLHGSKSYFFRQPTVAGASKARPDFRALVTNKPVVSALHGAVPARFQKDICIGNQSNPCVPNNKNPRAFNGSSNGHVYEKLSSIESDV
Experiment: Two electrode voltage-clamp recordings from Xenopus laevis oocytes, GluN2B potency and pH dependence
Type: cell-based
Settings: pH 7.6; read-out: IC50 value at pH 7.6
Experimental: Two Electrode Voltage-Clamp Recordings from Xenopus laevis Oocytes Stage V-VI Xenopus laevis unfertilized oocytes were purchased from Ecocyte (Austin, Texas) and injected with 5 ng of GluN1 and 10 ng of GluN2B cRNAs. The cDNAs for human GluN1 and GluN2B, encoding NCBI reference sequences NM_007327.3 and NM_000834.3, respectively, were linearized and cRNAs made as previously described (Traynelis et al., J Neurosci, 1998, 18(16):6163-75). […]
MEASUREMENT_NAME: pIC50
The quantity pIC50 is defined as the negative base-10 logarithm of the molar concentration.

Quick check: pIC50 of O=C1CCc2cc(OC[C@H](O)CN3CCN(c4ccc(C(F)(F)F)cc4)CC3)ccc2N1 ?
6.85

Quick check: pIC50 of O=C1CCc2cc(OC[C@@H](O)CN3CCN(c4ccc(C(F)(F)F)cc4)CC3)ccc2N1 ?
6.14
